# ASSAY NOTES: Human HepG2 cell viability assay in 384 well format
# Assay type: toxicity, cell-based
# Parameters: dose 125 nL, time 70.5 hour; concentration not given beside the values
# CONDITIONS: HepG2 cells, read-out: Inhibition
ASSAY READOUT: cytotoxicity at 70.5 h (%)
Just the number please, in %, no unit attached.

Consider the molecule shown here: `CCc1ccc(CN(CC)Cc2ccc(S(=O)(=O)NC)cc2)cc1` What is its recorded cytotoxicity at 70.5 h?
-1.74

Now consider CC(=O)N1CCOCC(Cc2ccc3c(ccn3C(C)=O)c2)C1 (centres undefined) and answer again.
-2.4

// query: `CCSc1ccccc1C(=O)NCCn1nc(-n2cncn2)ccc1=O`
-10.2

How about this molecule: COc1ccccc1CCNC(=O)N(C)C(C)CS(C)(=O)=O (centres undefined)
24.3

Can you handle CC1(C(N)=O)CCCN(c2cnccn2)C1 (centres undefined) next?
5.53

One more molecule: `COc1ccccc1[C@@H]1CN(Cc2nccn2C)C[C@H]1C(=O)O`
-3.84

Same thing, different molecule: `CCNS(=O)(=O)c1cccc(CSC)c1`
5.32

Now consider `CCN(c1ccc(C(=O)N2CCC(C)CC2)cc1)S(=O)(=O)CC` and answer again.
2.02

Please give the result for O=C1C(NS(=O)(=O)c2ccc(F)cc2F)CCN1Cc1ccccc1 (centres undefined) too.
-7.99

Same question for CC1CN(CC(=O)NCc2ccccc2)CCN1Cc1nccn1C (centres undefined) please.
0.503

Next record, please: `COCCNC(=O)[C@@H]1CN(c2ncccn2)C[C@H]2OCC[C@H]21`
-2.54

Cool, now `CCc1n[nH]c(C(=O)NCCn2ccnc2C)c1C`
-5.75

Next molecule: `CCOc1c(C(N)=O)cn(C)c1-c1nc2cc(NC(C)=O)ccc2n1C`
-19.2

And the next one, `COc1ccc(OC)c(CNc2c(O)c(=O)c2=O)c1` ?
-21.2

Thanks! And CC1CCN(C)c2ccccc2N1C(=O)c1ccnc(-n2cncn2)c1 (centres undefined) ?
2.2

Another molecule to look at: Cc1cc(=O)[nH]c(SC(C)C(=O)N2CCC(c3ncc[nH]3)CC2)n1 (centres undefined)
0.989

Would you kindly repeat that for `CCS(=O)(=O)N1CCc2ccc(NC(=O)NC3CCCCC3)cc21` ?
-7.09

Reference source for all entries: ChEMBL document CHEMBL3507680
